Entries and their pIC50
test system: RSV; experiment: RSV antiviral assay (Renilla luciferase reporter virus rA2-Rluc in A549 cells); format: cell-based, respiratory syncytial virus; conditions: human respiratory syncytial virus, A549, read-out: IC50 (RSV antiviral, text)
The read-out pIC50 is expressed as -log10 of concentration in moles per litre.

Notebook: CC(=O)OC1CC2(C)CC(O)(C3CC(=O)C(C)=CC3O)CCC2C2(C)CCCC(C)(C)C12 (centres unmarked) [Compound 11, suberitenone B] , pIC50 read as 5.46

Note to self: pIC50 recorded for CC(=O)OC1CC2(C)C=C(C3CC(=O)C(C)=CC3O)CCC2C2(C)CCCC(C)(C)C12 (centres unmarked) [Compound 10, suberitenone A] was 5.10

All values here come from paper PMC9964336.
